system: Plasmodium falciparum NF54 stage V gametocytes; assay: viability index relative to DMSO control (fraction); higher = less gametocyte killing; conditions: 2.5 µM, library set: Broad Institute DOS, incubation time: 72 h
Whole data set: some 9,900 compounds, median “viability index relative to DMSO control” near 1, cut for the lowest 2% near 0.85. This excerpt belongs to a sample that is enriched for the lowest values.
# maps each entry to its viability index
Give only the figure.

Consider the worked cases shown below.
COc1cccc(C#Cc2ccc([C@@H]3[C@H](C#N)N(C(=O)c4ccccn4)[C@H]3CO)cc2)c1 :: 0.929
N#C[C@H]1[C@@H](c2ccc(C#Cc3cccc(F)c3)cc2)[C@@H](CO)N1C(=O)C1CCOCC1 :: 1.05
COc1ccccc1C#Cc1ccc([C@H]2[C@@H](C#N)N(C(=O)C3CCC3)[C@H]2CO)cc1 :: 0.846

API: the following record is the query input.
# input For the compound shown here, CN(C)C(=O)c1cccc(-c2ccc3c(c2)[C@H]2[C@H](CCN2C(=O)c2cnccn2)[C@@H](CO)N3)c1 , give the reported viability index.
# output 1.16
